Procedure Summary: soluble fraction after stress (log2 fold change); higher = more stays soluble; pooled small domains, quantitative proteomics
Assay Setup: stress: pH 4
Experimental Readout: soluble fraction (log2)
# respond with the number and nothing more

See these solved cases before continuing.
Entry HMIMTEKEKKLLNRYIMHDTIHKLYHEQNKSMRWIADNLGINFRTVQKYLDMDSGEFQKYSESISNR has what soluble fraction (log2)?
-0.141

Entry HMYSIKEFSFEVTTPGQRLDLFLSEELIGQTRSSIQNLILKKYVTVNGQVSKASYKVKTGEFISVKIPV has what soluble fraction (log2)?
0.22

Entry HMEIPMRDKLKTYIDYLFAGAPQTAATAETKAEILQNTLDKYDDLIAEGKTPEAAYSLAVSGIGDLGDF has what soluble fraction (log2)?
-0.339

Entry HMGESVVVPDLRGKTLEEARAILKKVDLDYEINDSTYSKTAVPGTIRDIVPAPGSHVKAGRILFVSING has what soluble fraction (log2)?
0.0395

Entry HMGKDIYLTSGWVEKFDELNEFSNSVDNYDRLNQFGMYENAIIGDTGVIKITDEMIFDLYEKIQVPVEAGP has what soluble fraction (log2)?
-1.04

Entry HMTHEIKIKSHSLFASEGTKYQWYLNNIKINDATSQELEITSPGIYKLEMTNFDGDVIEKQIIVGLTNS has what soluble fraction (log2)?
-1.52

Next:
Entry HMSDMIGQNIRRLRTEKQMTQKALADKLFVTAQAVSRWENGEVEPSLSTVTEIARIFNVSADEILGI has what soluble fraction (log2)?
-0.284

Entry HMGLSIPLMGAKASDIEISTLNDEVQRKLKIIVKEQGHENLQRVVPLPSEAREIQAHFINGRLHLR has what soluble fraction (log2)?
0.214

Entry HMGPTPTSAQLTEAKRLRTKLDDLNPELAERLWSEHREPYTETQYQTLIEKLAAEVQSAEGEIGR has what soluble fraction (log2)?
0.351

Entry HMPERMLEPLLNGNEIMKVTQLQPGPKVGLIRDALLQAQISGDVTDTESAKAFVQDYAKRNI has what soluble fraction (log2)?
0.386

Entry HMNFRESVLAVFENSKQKYLDFDEIAKRLGLTRGFDRQALASMLNELTRNDEIVFTKRNKYTLPEN has what soluble fraction (log2)?
-0.774

Entry HMDATGDPIADRILQALQLGELTRTQVNNVFQRHLAAARISQALNFLRSLKRADMRMEETAGRSGEVWFAI has what soluble fraction (log2)?
-0.254

Entry HMEVAASEQRDNLWALARRVLSGEQYDVLYLRYVEDFSVAQIADVVGKTQTHVKVLLFRGRNNLGSRLRS has what soluble fraction (log2)?
-0.0684

---

Reported soluble fraction (log2) values follow for various sequences
Procedure Summary: soluble fraction after stress (log2 fold change); higher = more stays soluble; pooled small domains, quantitative proteomics
Assay Setup: stress: pH 4
# respond with the number and nothing more

Entry HMDNTFEEVKEKLLDLLKERPLTPAEVSKRMEEDKNILAQVIQYLLEEEIIKTEDGMLSKVIG has what soluble fraction (log2)?
-0.0649

Entry HMPPTSADGIEKYLASGMIRGVGPVYAKKLVSAFGDKVFDIIEAAPHQLQEVEGIGRVRAASILAAWAEQ has what soluble fraction (log2)?
-0.0654

Entry HMNSFKIYPNPSSREVVRFNQAQDVKVYDTLGKLILSAKNTSAIDTKSFNTGIYFIKTANGLTKKLIV has what soluble fraction (log2)?
-0.0877

Kindly consider the entry below.
Entry HMTAPDDFIRAEVTASGKNGMAVAELSKRVRTRFKSFKVRELGYPHLAGYLADVEGVRVYKQGRENWVAK has what soluble fraction (log2)?
-0.241
